system: SARS-CoV-2; experiment: Antiviral activity against SARS-CoV-2 assessed as reduction in progeny production measured 24 hrs post infection by PFU assay; format: functional, organism-based; details: Severe acute respiratory syndrome coronavirus 2, 24 h
Endpoint Name: pIC50
Formally, pIC50 is defined as -log10 of the concentration c, with c in mol/L.

C=C(C)[C@]12C[C@@H](C)[C@@]34O[C@](/C=C/C=C/CCCCCCCCC)(O[C@@H]1[C@@H]3[C@@H]1O[C@]1(CO)[C@@H](O)[C@]1(O)C(=O)C(C)=C[C@H]14)O2 = 4.19
C=C(C)[C@]12C[C@@H](C)[C@@]34O[C@](/C=C/C=C/C(=O)CCCCCCCC)(O[C@@H]1[C@@H]3[C@@H]1O[C@]1(CO)[C@@H](O)[C@]1(O)C(=O)C(C)=C[C@H]14)O2 = 4.30

# input for lookup
Lookup: Return pIC50 (reported value) for this compound: C=C(C)[C@]1(O)C[C@@H](C)[C@]2(O)[C@H]([C@H]1O)[C@@H]1O[C@]1(COC(=O)CCCCCCCCCC(C)/C=C/CCCCC)[C@@H](O)[C@]1(O)C(=O)C(C)=C[C@H]12 (stereo partly drawn)
Found: 4.47
